Please respond with reported CC50 at 3 days for every item in the list.
method.notes: Cytotoxicity, ATPlite Luminescence Assay
Format: cell-based, human
condition.details: human, HepG2.117 cells; mean value; cells incubated for 3 days, viability by ATPlite; read-out: TOX-HepC2.117 CC50

(Q) Requested read-out: CC50 at 3 days. Entry: O=C(c1ccc(Cl)c(Cl)c1)N1CCc2nn3c(c2C1)-c1n[nH]cc1CC(CO)C3 (centres unmarked)
(A) > 50 µM

(Q) Need CC50 at 3 days of `C=C1Cc2c(noc2N)-c2c3c(nn2C1)CCN(C(=O)c1ccc(Cl)c(Cl)c1)C3` , thanks.
(A) 21.2 µM

(Q) Requested field: CC50 at 3 days. Item: `C=C1Cc2conc2-c2c3c(nn2C1)CCN(C(=O)c1ccc(Cl)c(Cl)c1)C3`
(A) 24.7 µM

(Q) Which CC50 at 3 days value is on record for `Cc1onc2c1CCCn1nc3c(c1-2)CN(C(=O)c1ccc(Cl)c(Cl)c1)CC3` ?
(A) 31.1 µM

(Q) Request the reported CC50 at 3 days associated with `Cc1[nH]nc2c1CCn1nc3c(c1-2)CN(C(=O)c1ccc(Cl)c(Cl)c1)CC3`
(A) > 50 µM

(Q) Dear colleague, I am looking for the recorded CC50 at 3 days of the following compound: O=C(NCC(F)(F)F)C1Cc2conc2-c2c3c(nn2C1)CCN(C(=O)c1ccc(Cl)c(Cl)c1)C3 (centres unmarked)
(A) > 50 µM

(Q) Quick check: CC50 at 3 days of CNC(=O)[C@@H]1Cc2conc2-c2c3c(nn2C1)CCN(C(=O)c1ccc(Cl)c(Cl)c1)[C@@H]3C (single isomer, unassigned) ?
(A) > 50 µM

(Q) State the recorded CC50 at 3 days for this entry: `CCc1onc2c1CCn1nc3c(c1-2)CN(C(=O)c1ccc(Cl)c(Cl)c1)CC3`
(A) 47 µM

(Q) What does the data say about its CC50 at 3 days? Entry: `O=C(c1ccc(Cl)c(Cl)c1)N1CCc2nn3c(c2C1)-c1nocc1CC3`
(A) > 50 µM

(Q) // query CC50 at 3 days value for entry `O=C(c1ccc(Cl)c(Cl)c1)N1CCc2nn3c(c2C1)-c1nocc1CCC3`
(A) > 46.2 µM

(Q) What value of CC50 at 3 days has been recorded for this entry: `Cn1cc2c(n1)-c1c3c(nn1CC2)CCN(C(=O)c1ccc(Cl)c(Cl)c1)C3`
(A) > 50 µM

(Q) Please give the measured CC50 at 3 days for this compound: CNC(=O)[C@H]1Cc2conc2-c2c3c(nn2C1)C[C@@H](C)N(C(=O)c1ccc(Cl)c(Cl)c1)C3 (single isomer, unassigned)
(A) > 50 µM

(Q) May I ask what CC50 at 3 days has been recorded for `O=C(c1ccc(Cl)c(Cl)c1)N1CCc2nn3c(c2C1)-c1n[nH]cc1CCC3` ?
(A) 25.6 µM

(Q) What CC50 at 3 days value was documented for this compound, CN(C)C(=O)C1Cc2conc2-c2c3c(nn2C1)CCN(C(=O)c1ccc(Cl)c(Cl)c1)C3 (centres unmarked) ?
(A) > 50 µM

----------
method.notes: Cytotoxicity, ATPlite Luminescence Assay
Type: cell-based, human
condition.details: human, HepG2.117 cells; mean value; cells incubated for 3 days, viability by ATPlite; read-out: TOX-HepC2.117 CC50
Would you kindly list CC50 at 3 days for each of these compounds?

(Q) For the compound shown here, Cn1cc2c(n1)-c1c3c(nn1CCC2)CCN(C(=O)c1ccc(Cl)c(Cl)c1)C3 [Compound 42] , give the reported CC50 at 3 days.
(A) > 50 µM

(Q) If you can, please state the reported CC50 at 3 days value of C=C1Cc2c(noc2N(C)C)-c2c3c(nn2C1)CCN(C(=O)c1ccc(Cl)c(Cl)c1)C3 [Compound 26] .
(A) > 50 µM

(Q) Give the measured CC50 at 3 days of O=C(c1ccc(Cl)c(Cl)c1)N1CCc2nn3c(c2C1)-c1nocc1CC(O)(CO)C3 (stereo not shown) [Compound 18] .
(A) > 50 µM

(Q) Consider the compound O=C(c1ccc(Cl)c(Cl)c1)N1CCc2nn3c(c2C1)-c1n[nH]cc1CC3 [Compound 6] and give its measured CC50 at 3 days.
(A) > 50 µM

(Q) Fill in: CC50 at 3 days of CNC(=O)[C@@H]1Cc2conc2-c2c3c(nn2C1)CCN(C(=O)c1ccc(Cl)c(Cl)c1)C3 (single isomer, unassigned) [Compound 30] is ___
(A) > 50 µM

(Q) // lookup CC50 at 3 days for COC1Cc2conc2-c2c3c(nn2C1)CCN(C(=O)c1ccc(Cl)c(Cl)c1)C3 (stereo not shown) [Compound 20]
(A) > 50 µM

(Q) CC50 at 3 days lookup needed for CNC(=O)[C@H]1Cc2conc2-c2c3c(nn2C1)CCN(C(=O)c1ccc(Cl)c(Cl)c1)C3 (single isomer, unassigned) [Compound 31] , thanks.
(A) > 50 µM

(Q) # get_value(readout='CC50 at 3 days', item= Cc1nc2c(s1)CCn1nc3c(c1-2)CN(C(=O)c1ccc(Cl)c(Cl)c1)CC3 [Compound 10] )
(A) > 10 µM

(Q) Bench note: what CC50 at 3 days did O=C(c1ccc(Cl)c(Cl)c1)N1CCc2nn3c(c2C1)-c1nocc1CC(CO)C3 (stereo not shown) [Compound 27] show?
(A) > 50 µM

(Q) // lookup CC50 at 3 days for O=C(O)C1Cc2conc2-c2c3c(nn2C1)CCN(C(=O)c1ccc(Cl)c(Cl)c1)C3 (stereo not shown) [Compound 29]
(A) > 50 µM

(Q) Request the reported CC50 at 3 days associated with CCc1onc2c1CCCn1nc3c(c1-2)CN(C(=O)c1ccc(Cl)c(Cl)c1)CC3 [Compound 13]
(A) 26.6 µM

(Q) So what does the record say about CC50 at 3 days for Cc1onc2c1CCn1nc3c(c1-2)CN(C(=O)c1ccc(Cl)c(Cl)c1)CC3 [Compound 2] ?
(A) 41.9 µM

(Q) Which CC50 at 3 days value belongs to Cn1cnc2c1CCCn1nc3c(c1-2)CN(C(=O)c1ccc(Cl)c(Cl)c1)CC3 [Compound 45] ?
(A) > 50 µM

(Q) State the recorded CC50 at 3 days for this entry: O=C(c1ccc(Cl)c(Cl)c1)N1CCc2nn3c(c2C1)-c1nocc1CC(C(=O)N1CCOCC1)C3 (stereo not shown) [Compound 38]
(A) > 50 µM

(Q) May I ask what CC50 at 3 days has been recorded for O=C(c1cnc(Cl)c(Cl)c1)N1CCc2nn3c(c2C1)-c1nocc1CC(O)C3 (stereo not shown) [Compound 53] ?
(A) > 50 µM

(Q) Endpoint output: CC50 at 3 days of CCNC(=O)C1Cc2conc2-c2c3c(nn2C1)CCN(C(=O)c1ccc(Cl)c(Cl)c1)C3 (stereo not shown) [Compound 32] . Value?
(A) > 50 µM

----------
Would you mind telling me the reported CC50 at 3 days of each entry?
method.notes: Cytotoxicity, ATPlite Luminescence Assay
Format: cell-based, human
condition.details: human, HepG2.117 cells; mean value; cells incubated for 3 days, viability by ATPlite; read-out: TOX-HepC2.117 CC50

(Q) // returns reported CC50 at 3 days for input `O=C(c1ccc(Cl)c(Cl)c1)N1CCc2nn3c(c2C1)-c1ncsc1CCC3`
(A) 27.1 µM

(Q) Param item = CNC(=O)C1(O)Cc2conc2-c2c3c(nn2C1)CCN(C(=O)c1ccc(Cl)c(Cl)c1)C3 (stereo not shown) ; retrieve measured CC50 at 3 days.
(A) > 50 µM

(Q) CC50 at 3 days lookup needed for `O=C(c1ccc(Cl)c(Cl)c1)N1CCc2nn3c(c2C1)-c1ncoc1CCC3` , thanks.
(A) > 50 µM

(Q) For the compound shown here, O=C(NCCO)C1Cc2conc2-c2c3c(nn2C1)CCN(C(=O)c1ccc(Cl)c(Cl)c1)C3 (stereo not shown) , give the reported CC50 at 3 days.
(A) > 50 µM

(Q) Given `Nc1nc2c(s1)CCCn1nc3c(c1-2)CN(C(=O)c1ccc(Cl)c(Cl)c1)CC3` , state its recorded CC50 at 3 days.
(A) > 50 µM

(Q) Reported CC50 at 3 days for `Cn1ncc2c1-c1c3c(nn1CC2)CCN(C(=O)c1ccc(Cl)c(Cl)c1)C3` : what is it?
(A) > 50 µM

(Q) Please report the recorded CC50 at 3 days for `O=C(c1ccc(Cl)c(Cl)c1)N1CCc2nn3c(c2C1)-c1nc[nH]c1CCC3` .
(A) > 50 µM

(Q) Any idea what its CC50 at 3 days is? The compound is `C[C@@H]1Cc2nn3c(c2CN1C(=O)c1ccc(Cl)c(Cl)c1)-c1nocc1CC3`
(A) > 50 µM

(Q) I would be grateful if you could share the reported CC50 at 3 days for `Cc1onc2c1CCCn1nc3c(c1-2)CN(C(=O)c1ccc(Cl)c(Cl)c1)[C@H](C)C3` .
(A) > 43.5 µM

(Q) Given O=C(c1ccc(Cl)c(Cl)c1)N1CCc2nn3c(c2C1)-c1nocc1CC(O)C3 (stereo not shown) , state its recorded CC50 at 3 days.
(A) > 50 µM

(Q) Dear colleague, I am looking for the recorded CC50 at 3 days of the following compound: CNC(=O)[C@H]1Cc2conc2-c2c3c(nn2C1)CCN(C(=O)c1ccc(Cl)c(Cl)c1)[C@@H]3C (single isomer, unassigned)
(A) > 50 µM

(Q) Give its CC50 at 3 days value. Item: `O=C(c1ccc(Cl)c(Cl)c1)N1CCc2nn3c(c2C1)-c1oncc1CCC3`
(A) 43.6 µM

(Q) # lookup: CC50 at 3 days of Nc1onc2c1CC(O)(CO)Cn1nc3c(c1-2)CN(C(=O)c1ccc(Cl)c(Cl)c1)CC3 (stereo not shown)
(A) > 50 µM

(Q) Which CC50 at 3 days value is on record for `C[C@@H]1Cc2nn3c(c2CN1C(=O)c1ccc(Cl)c(Cl)c1)-c1nocc1CCC3` ?
(A) 39.2 µM

(Q) Quick one: CC50 at 3 days of `O=C(c1ccc(Cl)c(Cl)c1)N1CCc2nn3c(c2C1)-c1noc(C(F)(F)F)c1CCC3` ?
(A) > 50 µM

(Q) Query (compound): `O=C(c1ccc(Cl)c(Cl)c1)N1CCc2nn3c(c2C1)-c1noc(-c2ccccc2)c1CC3` ; field requested: CC50 at 3 days
(A) > 10 µM

The measured values listed here are drawn from patent US20220242879A1.
